System: KB
assay-remarks: Antiproliferative activity against human KB cells assessed as reduction in cell growth after 72 hrs by sulforhodamine B assay
property-label: IC50 (µM)
API: value field is a number in µM; no unit string.

query: Report IC50 under test system KB for `O=C(/C=C/c1ccccc1O)c1cc(Cl)ccc1O` .
result: 5

query: Using KB as the test system, report measured IC50 of `COc1ccccc1/C=C/C(=O)c1cc(Br)ccc1O` .
result: 16.2

---

target-entity: Androgen receptor (Homo sapiens, UniProt P10275)
Sequence (P10275 whole entry): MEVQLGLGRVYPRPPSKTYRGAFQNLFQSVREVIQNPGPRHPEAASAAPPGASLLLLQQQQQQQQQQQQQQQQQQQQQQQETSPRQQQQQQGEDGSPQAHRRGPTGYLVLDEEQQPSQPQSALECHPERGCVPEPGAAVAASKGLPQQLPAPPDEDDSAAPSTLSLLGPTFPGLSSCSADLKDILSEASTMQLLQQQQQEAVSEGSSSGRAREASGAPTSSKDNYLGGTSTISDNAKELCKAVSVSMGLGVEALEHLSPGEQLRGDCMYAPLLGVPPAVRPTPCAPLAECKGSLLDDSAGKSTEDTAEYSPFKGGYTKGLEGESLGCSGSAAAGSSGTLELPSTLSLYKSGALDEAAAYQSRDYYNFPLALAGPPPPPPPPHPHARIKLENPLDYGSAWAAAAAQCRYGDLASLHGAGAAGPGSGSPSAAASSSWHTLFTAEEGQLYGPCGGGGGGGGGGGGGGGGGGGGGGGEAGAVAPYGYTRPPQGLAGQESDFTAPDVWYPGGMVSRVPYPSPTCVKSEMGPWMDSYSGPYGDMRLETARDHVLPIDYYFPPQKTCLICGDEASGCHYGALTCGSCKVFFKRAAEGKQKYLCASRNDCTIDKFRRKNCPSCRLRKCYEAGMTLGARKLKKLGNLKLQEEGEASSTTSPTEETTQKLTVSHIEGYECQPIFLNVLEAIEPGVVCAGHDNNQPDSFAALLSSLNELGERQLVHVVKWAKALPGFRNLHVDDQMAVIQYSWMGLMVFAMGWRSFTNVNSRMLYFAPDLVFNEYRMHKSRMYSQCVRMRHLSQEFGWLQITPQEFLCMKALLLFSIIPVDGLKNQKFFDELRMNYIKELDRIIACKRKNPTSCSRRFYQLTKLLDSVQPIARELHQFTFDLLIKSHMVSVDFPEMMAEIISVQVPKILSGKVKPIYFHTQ
assay-remarks: Antagonist activity at AR in human LNCAP cells assessed as reduction in DHT-induced transcriptional activation after 24 hrs by luciferase reporter gene assay
pIC50: −log10 of the molar value.
property-label: pIC50

query: Tell me its pIC50 given `COc1ccccc1/C=C/C(=O)c1cc(Br)ccc1O` as the entry.
result: > 6.00

query: Quick one: give measured pIC50 for `COc1ccccc1/C=C/C(=O)c1cc(Cl)ccc1O`
result: < 5.00

query: Give the measured pIC50 for O=C1CC(c2ccccc2O)Oc2ccccc21 (centres undefined) [2'-HYDROXY-FLAVANONE]
result: > 6.00

query: Recall and state the measured pIC50 for `O=c1cc(-c2ccccc2O)oc2ccccc12` .
result: > 6.00

Hey, just so you know, these numbers are from ChEMBL document CHEMBL4270636.
